ENDPOINT_LABEL: melting point (°C)
Give bare numbers, in °C.

Go through the list and state melting point for each entry.
1. CCOc1cc(CC)ccc1C1CCN(CCCCNC(=O)c2ccc(-c3ccc(C#N)cc3)cc2)CC1
2. CCc1ccc(C2CCN(CCCCNC(=O)c3ccc(-c4ccc(C#N)cc4)cc3)CC2)c(O)c1
3. Cc1ccc(C2CCN(CCCCNC(=O)c3ccc(-c4ccc(C#N)cc4)cc3)CC2)c(O)c1

1: 165; 2: 252; 3: 184

---

Field: pIC50. Provide a value for each of the compounds that follow.
Tested on: LDL-r promoter
ASSAY_REMARKS: LDL-r promoter luciferase reporter gene assay in stably transfected HepG2 cells
Format: cell-based, human
EXPERIMENTAL_CONTEXT: HepG2 cells with LDL-r promoter-luciferase construct, 24 hours incubation, RPMI medium with 2% lipoprotein-deficient serum, induction of luciferase activity; read-out: In vitro (IC50)
Answers are plain numbers, as −log10 of the molar value.

Notebook: pull reported pIC50 for LDL-r promoter, entry COc1c(C2CCN(CCCCNC(=O)c3ccc(-c4ccc(C#N)cc4)cc3)CC2)ccc2c1CCCC2
8.00

Further cases:
Notebook: pull reported pIC50 for LDL-r promoter, entry COc1c(C2CCN(CCCCNC(=O)c3ccc(-c4ccc(Cl)cc4)cc3)CC2)ccc2ccccc12
8.00

Data provenance: patent US20040147557A1
